experiment: Cytotoxicity against rat L6 cells after 5 days by resazurin assay; format: cell-based
// boundary case: CC50 at 120 h equal to 80 µM maps to False; strictly smaller maps to True

CC(=O)Oc1cccc(N2C(=O)/C(=C/N3N=C(c4ccccc4)CC3c3ccccc3O)SC2=S)c1 (configuration not stated) = True
CN1C(=O)/C(=C/N2N=C(c3ccc4ccccc4c3)CC2c2ccc(Cl)cc2)SC1=S (configuration not stated) = False
COc1ccc(C2=NN(/C=C3\SC(=S)N(c4cccc(OC(C)=O)c4)C3=O)C(c3ccccc3O)C2)cc1 (configuration not stated) = True
COc1ccc(C2CC(c3ccc4ccccc4c3)=NN2/C=C2\SC(=S)N(c3cccc(OC(C)=O)c3)C2=O)cc1 (configuration not stated) = False

stdin: # check: CC50 at 120 h < 80 µM for CC(=O)Oc1cccc(N2C(=O)/C(=C/N3N=C(c4ccccc4)CC3c3ccc(N(C)C)cc3)SC2=S)c1 (configuration not stated)
stdout: False

stdin: Below 80 µM on CC50 at 120 h? Entry COc1ccc(C2CC(c3ccc4ccccc4c3)=NN2/C=C2\SC(=S)N(C)C2=O)cc1 (configuration not stated)
stdout: False
